For Adenosine receptor A2a (Homo sapiens), measured Ki is reported for the entries below.
outcome-measure: Ki (nM)

# line-notation, assayed-system, units-text, relational-operator, reported-measurement
measured = [
    ("COc1cccc(/C=C/c2cc3c(c(=O)n(C)c(=O)n3C)n2C)c1", "Adenosine receptor A2a (Homo sapiens)", "nM", "=", 390),
    ("CC(=O)c1ccc(/C=C/c2cc3c(c(=O)n(C)c(=O)n3C)n2C)cc1", "Adenosine receptor A2a (Homo sapiens)", "nM", "=", 93.9),
    ("Cn1c(=O)c2c(c3ccc(-c4cccc(Cl)c4)cc3n2C)n(C)c1=O", "Adenosine receptor A2a (Homo sapiens)", "nM", ">", 1000),
    ("Cn1c(=O)c2c(cc(/C=C/c3cccc(O)c3)n2C)n(C)c1=O", "Adenosine receptor A2a (Homo sapiens)", "nM", ">", 1000),
    ("Cn1c(=O)c2c(cc(/C=C/c3cccc(N)n3)n2C)n(C)c1=O", "Adenosine receptor A2a (Homo sapiens)", "nM", "=", 887),
]
